SYSTEM NAME: recombinant human PAD4 (human, UniProt Q9UM07 1-663)
Sequence (Q9UM07 whole entry): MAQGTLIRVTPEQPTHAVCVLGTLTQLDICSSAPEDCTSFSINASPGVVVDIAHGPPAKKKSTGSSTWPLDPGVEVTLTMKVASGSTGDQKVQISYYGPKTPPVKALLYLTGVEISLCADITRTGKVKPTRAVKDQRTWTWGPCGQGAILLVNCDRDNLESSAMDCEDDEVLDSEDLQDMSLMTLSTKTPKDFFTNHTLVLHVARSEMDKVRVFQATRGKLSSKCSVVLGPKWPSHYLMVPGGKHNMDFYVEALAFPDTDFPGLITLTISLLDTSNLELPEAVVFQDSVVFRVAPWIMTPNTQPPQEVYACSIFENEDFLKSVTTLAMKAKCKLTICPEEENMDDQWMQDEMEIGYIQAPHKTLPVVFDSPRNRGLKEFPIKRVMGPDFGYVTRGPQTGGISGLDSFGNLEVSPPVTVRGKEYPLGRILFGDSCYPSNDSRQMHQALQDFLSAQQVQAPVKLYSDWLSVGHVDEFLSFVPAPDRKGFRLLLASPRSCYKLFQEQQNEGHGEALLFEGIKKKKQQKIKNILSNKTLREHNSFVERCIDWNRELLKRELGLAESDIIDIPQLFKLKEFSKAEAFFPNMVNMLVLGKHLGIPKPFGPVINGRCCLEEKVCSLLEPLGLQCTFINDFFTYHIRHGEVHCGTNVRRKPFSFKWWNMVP
EXPERIMENT NOTES: cell-based or functional assay
Square brackets hold non-standard residues; d marks the D form. Orn(fluoroacetimidoyl) = N=C(CF)NCCC[C@H](N)C(=O)O
ENDPOINT: conversion of 0708-30 by PAD4, 50 µM inhibitor (%)
Field format: number, assumed %, no unit text.

Which conversion of 0708-30 by PAD4, 50 µM inhibitor is listed for Ac-FFDSHKWH[Orn(fluoroacetimidoyl)]DFFYSD-NH2 (SMILES CC(=O)N[C@@H](Cc1ccccc1)C(=O)N[C@@H](Cc1ccccc1)C(=O)N[C@@H](CC(=O)O)C(=O)N[C@@H](CO)C(=O)N[C@@H](Cc1c[nH]cn1)C(=O)N[C@@H](CCCCN)C(=O)N[C@@H](Cc1c[nH]c2ccccc12)C(=O)N[C@@H](Cc1c[nH]cn1)C(=O)N[C@@H](CCCNC(=N)CF)C(=O)N[C@@H](CC(=O)O)C(=O)N[C@@H](Cc1ccccc1)C(=O)N[C@@H](Cc1ccccc1)C(=O)N[C@@H](Cc1ccc(O)cc1)C(=O)N[C@@H](CO)C(=O)N[C@@H](CC(=O)O)C(N)=O) [0741-02FA] ?
20
